- tested system: human DLK (Homo sapiens (Human), UniProt Q12852)
- assay explanation: biochemical
- Format: binding
- study conditions: Table 2b DLK activity (global); read-out: Kd
endpoint: Kd (nM)

[[record]]
compound = "CC(C)c1nc(-c2cnc(N)c(OC(F)(F)F)c2)cn1C12CC(N3CCN(C)CC3)(C1)C2"
reported_value = 4.5

[[record]]
compound = "Nc1ncc(-c2cn(C34CC(C3)C4)c(C(O)C(F)(F)F)n2)cc1OC(F)(F)F (centres unmarked) [Example 63b]"
reported_value = 1.6

[[record]]
compound = "CCC(C)c1nc(-c2cnc(N)c(OC(F)(F)F)c2)cn1C12CC(N3CCOCC3)(C1)C2 (centres unmarked)"
reported_value = 8.6

[[record]]
compound = "Nc1ncc(-c2cn(C34CC(N5CCN(CC(F)(F)F)CC5)(C3)C4)c(C3CC3)n2)cc1OC(F)(F)F"
reported_value = 18

[[record]]
compound = "N#CC1(c2nc(-c3cnc(N)c(OC(F)(F)F)c3)cn2C23CC(N4CCOCC4)(C2)C3)CC1"
reported_value = 20

[[record]]
compound = "Nc1ncc(-c2cn(C34CC(N5CCOCC5)(C3)C4)c(C3CCC3)n2)cc1OC(F)(F)F"
reported_value = 32

[[record]]
compound = "Nc1ncc(-c2cn(C34CC(C3)C4)c(C(O)C3CC3)n2)cc1OC(F)(F)F (centres unmarked)"
reported_value = 5.1

[[record]]
compound = "CCC(O)c1nc(-c2cnc(N)c(C(F)(F)F)c2)cn1C12CC(C1)C2 (centres unmarked)"
reported_value = 2.1

